# test.system: UniProt P01116
# note: boundary value 3000 nM maps to false (0); IC50 below it maps to true (1)

Is IC50 strictly under 3000 nM for the entry C=C1CN2CCC[C@@]2(COc2nc3c4c(c(Cl)c(-c5nc(N)cc(C)c5C(F)(F)F)c(F)c4n2)OCCN3C2CCNC2)C1 (some centres unmarked) [Example 515] ?
true (1)

Say whether its IC50 is strictly beneath 3000 nM. Entry: C=C1CN2CCC[C@@]2(COc2nc3c4c(c(Cl)c(-c5nc(N)cc(C)c5C(F)(F)F)cc4n2)OCCN3CCN(C)C)C1 [Example 511]
true (1)

Input Cc1cc(N)nc(-c2cc3ncnc4c3c(c2Cl)OC[C@H](CC#N)N4C2CCNC2)c1C(F)(F)F (single isomer, unassigned) [Example 507] ; condition: IC50 strictly below 3000 nM. Does it hold?
false (0)

Problem: For the molecule C=C1CN2CCC[C@@]2(COc2nc3c4c(c(Cl)c(-c5nc(N)cc(C)c5C(F)(F)F)c(F)c4n2)OCCN3CCN(C)C)C1 (single isomer, unassigned) [Example 514] , is IC50 under 3000 nM?
false (0)

# TODO verify IC50 < 3000 nM strictly for this molecule: Cc1cc(N)nc(-c2cc3ncnc4c3c(c2Cl)OCCN4CCN(C)CCO)c1C(F)(F)F [Example 502]
false (0)

Take the molecule C=C1CN2CCC[C@@]2(COc2nc3c4c(c(Cl)c(-c5c(F)ccc6cnn(C)c56)cc4n2)OCCN3CCN(C)C)C1 [Example 512] and say whether its IC50 is less than 3000 nM.
true (1)

Does C=C1CN2CCC[C@@]2(COc2nc3c4c(c(F)c(-c5nc(N)cc(C)c5C(F)(F)F)c(F)c4n2)OCCN3CCN(C)C)C1 (single isomer, unassigned) [Example 523] have IC50 strictly under 3000 nM?
true (1)

Please determine if C=C1CN2CCC[C@@]2(COc2nc3c4c(c(F)c(-c5nc(N)cc(C)c5C(F)(F)F)c(F)c4n2)OCCN3CCN(C)C)C1 (single isomer, unassigned) [Example 524] is below 3000 nM in terms of IC50.
true (1)

====

# test.system: KRas(G12V) (Homo sapiens (Human), UniProt P01116, G12V)
# Sequence (P01116-2 other isoform, or with tags, fused parts or gaps G12V): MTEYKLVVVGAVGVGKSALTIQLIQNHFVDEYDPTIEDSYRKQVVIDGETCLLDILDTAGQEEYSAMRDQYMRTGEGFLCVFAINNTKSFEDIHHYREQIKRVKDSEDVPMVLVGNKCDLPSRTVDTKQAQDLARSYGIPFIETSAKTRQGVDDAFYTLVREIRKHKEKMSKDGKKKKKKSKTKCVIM
# assay.explanation: KRas(G12V) GDP HTRF (BODIPY-GDP exchange TR-FRET)
Exercise: state measured IC50 for each of the compounds provided.

Lab note: need IC50 for Cc1cc(N)nc(-c2c(Br)c3c4c(nc(OC[C@@]56CCCN5C[C@H](F)C6)nc4c2F)N([C@H](C)c2cccnc2N)CCO3)c1C(F)(F)F (atropisomer, axis not shown; (aS)) on KRas(G12V) (Homo sapiens (Human), UniProt P01116, G12V), anyone have it?
0.05 nM

Find the measured IC50: item Cc1cc(N)nc(-c2c(Cl)c3c4c(nc(OCC5(C#N)CCOCC5)nc4c2F)N([C@H](C)c2cccnc2N)CCO3)c1C(F)(F)F (atropisomer, axis not shown) , target or system KRas(G12V) (Homo sapiens (Human), UniProt P01116, G12V).
0.31 nM

// fetch KRas(G12V) (Homo sapiens (Human), UniProt P01116, G12V) IC50 for `COCC12COC(COc3nc4c5c(c(Cl)c(-c6nc(N)cc(C)c6C(F)(F)F)c(F)c5n3)OCCN4[C@H](C)c3cccnc3N)(C1)C2`
0.21 nM

Checklist item: IC50 tested on KRas(G12V) (Homo sapiens (Human), UniProt P01116, G12V), entry `Cc1cc(N)nc(-c2c(Cl)c3c4c(nc(OC[C@@]56CCCN5C[C@H](F)C6)nc4c2F)N([C@H](C)c2cc(Cl)cnc2N)CCO3)c1C(F)(F)F` , value?
0.14 nM

Which measured IC50 belongs to `CN1CCOc2c(Cl)c(-c3c(F)ccc4cnn(C)c34)cc3nc(OC[C@@]45CCCN4C[C@H](F)C5)nc1c23` , tested on KRas(G12V) (Homo sapiens (Human), UniProt P01116, G12V)?
810 nM

====

# test.system: KRAS G12D (Homo sapiens (Human), UniProt P01116, G12D)
# Sequence (P01116-2 other isoform, or with tags, fused parts or gaps G12D): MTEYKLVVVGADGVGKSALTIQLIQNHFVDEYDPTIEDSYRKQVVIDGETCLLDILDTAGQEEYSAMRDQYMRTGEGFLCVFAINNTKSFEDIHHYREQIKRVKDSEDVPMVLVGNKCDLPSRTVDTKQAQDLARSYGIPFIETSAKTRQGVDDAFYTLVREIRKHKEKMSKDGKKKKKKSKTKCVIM
# assay.explanation: KRas (G12D) GDP HTRF (BODIPY-GDP exchange TR-FRET)
# Type: biochemical
We label by threshold. Values of IC50 strictly beneath 200 nM are Met. Values of 200 nM and up are Not met.

Is the reported IC50 for `Cc1cc(N)nc(-c2cc3nc(OCC45CCCN4CCC5)nc4c3c(c2Cl)OCCN4CCN(C)C)c1C(F)(F)F` strictly below 200 nM?
Met

Does C=C1CN2CCC[C@@]2(COc2nc3c4c(c(Cl)c(-c5nc(N)cc(C)c5C(F)(F)F)c(F)c4n2)OCCN3C2CCNC2)C1 (stereo partly shown) [Example 518] have IC50 strictly under 200 nM?
Met

Is 200 nM strictly greater than the compound's reported IC50? compound: Cc1cc(N)nc(-c2cc3ncnc4c3c(c2Cl)OCCN4C2CCNC2)c1C(F)(F)F (stereo not shown) [Example 505]
Not met

Quick check: IC50 of `Cc1cc(N)nc(-c2cc3nc(OC[C@@H]4C[C@@H](F)CN4C)nc4c3c(c2Cl)OCCN4CCN(C)C)c1C(F)(F)F` under 200 nM?
Met

Strictly below 200 nM: is that where IC50 of `C=C1CN2CCC[C@@]2(COc2nc3c4c(c(Cl)c(-c5c(F)ccc6cnn(C)c56)cc4n2)OCCN3CCN(C)C)C1` sits?
Met

Consider C=C1CN2CCC[C@@]2(COc2nc3c4c(c(Cl)c(-c5nc(N)cc(C)c5C(F)(F)F)c(F)c4n2)OCCN3C2CCNC2)C1 (stereo partly shown) [Example 515] . Does its IC50 lie strictly below 200 nM?
Met

Take the compound `CNCCN1CCOc2c(Cl)c(-c3nc(N)cc(C)c3C(F)(F)F)cc3ncnc1c23` and say whether its IC50 is less than 200 nM.
Not met

====

Provide the recorded IC50 for the entries that follow.
# output: bare number, implied unit nM

Please tell me: IC50 of Cc1cc(N)nc(-c2c(Cl)c3c4c(nc(OC[C@@]56CCCN5C[C@H](F)C6)nc4c2F)N(Cc2cccnc2N)CCO3)c1C(F)(F)F (single isomer, unassigned) [Example 42a] , system UniProt:P01116?
0.25

What value of IC50 on UniProt:P01116 does Cc1cc(N)nc(-c2c(Cl)c3c4c(nc(OC[C@]56CCCN5CC(F)(F)C6)nc4c2F)N([C@H](C)c2nccnc2N)CCO3)c1C(F)(F)F (atropisomer, axis not shown) [Example 166a] have?
2.06

Record Cc1cc(N)nc(-c2c(Cl)c3c4c(nc(OCC5CCN(C)C5)nc4c2F)N([C@H](C)c2cccnc2N)CCO3)c1C(F)(F)F (some centres unmarked) [Example 134] : what is its IC50 with UniProt:P01116?
0.21

Please provide the recorded IC50 for Cc1cc(N)nc(-c2c(Cl)c3c4c(nc(OC[C@]56CCN5CC(F)(F)C6)nc4c2F)N([C@H](C)c2cncnc2N)CCO3)c1C(F)(F)F (atropisomer, axis not shown) [Example 82b] , tested on UniProt:P01116.
0.224

Look up IC50 with UniProt:P01116 for this compound: Cc1cc(N)nc(-c2cc3ncnc4c3c(c2Cl)OCCN4Cc2ccnnc2N)c1C(F)(F)F [Example 56]
160

Query for UniProt:P01116: what IC50 does the record show for Cc1cc(N)nc(-c2cc3ncnc4c3c(c2Cl)OCCN4Cc2ccns2)c1C(F)(F)F [Example 22] ?
43000

Test system UniProt:P01116; read-out IC50; what value for Nc1ncccc1CN1CCOc2c(Cl)c(-c3cccc4ccccc34)cc3nc(OC[C@@]45CCCN4C[C@H](F)C5)nc1c23 [Example 62] ?
96

For the record Cc1cc(N)nc(-c2c(Cl)c3c4c(nc(OC[C@@H]5CC[C@H]6COCCN65)nc4c2F)N([C@H](C)c2nccnc2N)CCO3)c1C(F)(F)F (atropisomer, axis not shown; (aS)) [Example 104b] , what value of IC50 is listed for UniProt:P01116?
35.2

Fill in the recorded IC50 for this compound, with UniProt:P01116 as test system: Cc1cc(N)nc(-c2c(Cl)c3c4c(nc(OC[C@H]5CC[C@@H]6COC(F)(F)CN56)nc4c2F)N([C@H](C)c2cccnc2N)CCO3)c1C(F)(F)F (atropisomer, axis not shown; (aR)) [Example 91b]
2.2

Find IC50 (UniProt:P01116) for the entry Cc1cc(N)nc(-c2c(Cl)c3c4c(nc(OC[C@@H]5C[C@@H](F)CN5C)nc4c2F)N([C@H](C)c2cccnc2N)CCO3)c1C(F)(F)F (atropisomer, axis not shown) [Example 106]
0.14

Recorded IC50 for Cc1cc(N)nc(-c2c(Cl)c3c4c(nc(OC[C@@H]5C[C@@]6(CN5C)CC6(F)F)nc4c2F)N([C@H](C)c2cccnc2N)CCO3)c1C(F)(F)F (atropisomer, axis not shown) [Example 67] with UniProt:P01116, please?
0.55
